# Target entity: h-P2X2R (Homo sapiens, UniProt Q9UBL9)
# Sequence (Q9UBL9 whole entry): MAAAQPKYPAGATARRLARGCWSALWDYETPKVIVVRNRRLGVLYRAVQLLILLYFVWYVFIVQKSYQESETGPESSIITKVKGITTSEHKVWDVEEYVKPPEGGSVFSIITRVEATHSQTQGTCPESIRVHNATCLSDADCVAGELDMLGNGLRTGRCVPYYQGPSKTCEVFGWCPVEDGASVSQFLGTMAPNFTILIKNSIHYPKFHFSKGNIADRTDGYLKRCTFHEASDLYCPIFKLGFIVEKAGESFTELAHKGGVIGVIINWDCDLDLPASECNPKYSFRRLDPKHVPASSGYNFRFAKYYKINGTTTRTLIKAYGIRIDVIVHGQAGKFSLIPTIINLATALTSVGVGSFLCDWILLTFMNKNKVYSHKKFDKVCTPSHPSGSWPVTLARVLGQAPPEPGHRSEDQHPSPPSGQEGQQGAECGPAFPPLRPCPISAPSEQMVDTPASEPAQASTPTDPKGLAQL
# Test: Mode of inhibition: ATP dose-response curve without and with inhibitor, h-P2X2R
# Format: cell-based

Compound: Nc1ncnc2c1ncn2[C@@H]1O[C@H](COP(=O)(O)OP(=O)(O)OP(=O)(O)O)[C@@H](O)[C@H]1O [ATP, adenosine triphosphate, reference compound]
Target entity: h-P2X2R (Homo sapiens, UniProt Q9UBL9)
EC50 [nM]: 1080

* * *

# Target entity: UniProtKB Q99572
# Sequence (Q99572 whole entry): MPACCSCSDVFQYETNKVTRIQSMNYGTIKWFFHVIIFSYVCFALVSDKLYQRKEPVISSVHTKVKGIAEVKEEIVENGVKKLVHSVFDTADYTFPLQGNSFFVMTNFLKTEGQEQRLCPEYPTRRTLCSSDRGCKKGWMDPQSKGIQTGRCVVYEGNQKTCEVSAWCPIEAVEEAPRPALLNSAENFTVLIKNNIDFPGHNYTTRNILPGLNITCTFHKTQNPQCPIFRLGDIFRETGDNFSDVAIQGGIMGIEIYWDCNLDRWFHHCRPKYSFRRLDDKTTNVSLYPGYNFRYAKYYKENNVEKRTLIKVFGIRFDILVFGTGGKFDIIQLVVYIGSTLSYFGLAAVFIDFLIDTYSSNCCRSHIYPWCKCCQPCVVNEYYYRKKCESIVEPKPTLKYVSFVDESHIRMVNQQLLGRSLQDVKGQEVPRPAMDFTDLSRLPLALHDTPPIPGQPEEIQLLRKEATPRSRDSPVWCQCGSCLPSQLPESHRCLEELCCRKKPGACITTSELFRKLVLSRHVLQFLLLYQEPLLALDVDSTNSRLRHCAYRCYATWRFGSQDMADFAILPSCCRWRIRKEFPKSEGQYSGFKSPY
# Test: Ca2+ influx assay
pIC50: −log10 of the molar value.

Smiles data: CC(=NNC(=O)c1ccccc1NS(C)(=O)=O)c1ccc(Cl)cc1
Reading qualifier: <
pIC50: 4.30

Smiles data: CC(=NNC(=O)c1ccccc1NS(C)(=O)=O)c1ccccc1
Reading qualifier: =
pIC50: 5.38

Smiles data: CC(=NNC(=O)c1ccccc1NS(C)(=O)=O)c1cc(C)cs1
Reading qualifier: =
pIC50: 5.05

Smiles data: CC(=NNC(=O)c1ccccc1NS(C)(=O)=O)c1ccc(Br)cc1
Reading qualifier: <
pIC50: 4.30

Smiles data: CC(=NNC(=O)c1ccccc1NS(C)(=O)=O)c1cccc(Br)c1
Reading qualifier: =
pIC50: 5.26

Smiles data: CC(=NNC(=O)c1ccccc1NS(C)(=O)=O)c1ccc(N)cc1
Reading qualifier: =
pIC50: 5.96

Smiles data: CC(=NNC(=O)c1ccccc1NS(C)(=O)=O)c1ccc(C)s1
Reading qualifier: =
pIC50: 5.34

Smiles data: CC(=NNC(=O)c1ccccc1NS(C)(=O)=O)c1cccs1
Reading qualifier: <
pIC50: 4.30

Smiles data: CC(=NNC(=O)c1ccccc1NS(C)(=O)=O)c1ccc([N+](=O)[O-])s1
Reading qualifier: =
pIC50: 5.17

Smiles data: CC(=NNC(=O)c1ccccc1NS(C)(=O)=O)c1sccc1C
Reading qualifier: <
pIC50: 4.30

These measurements were taken from paper PMC8482771.
